The measured values listed here are drawn from patent US8093232B2.

Target: full-length recombinant rat vitamin D receptor (Rattus norvegicus)
Construct: Full-length recombinant rat receptor was expressed in E. coli BL21 (DE3) Codon Plus RIL cells; histidine tag (C)
Sequence (P13053 1-423): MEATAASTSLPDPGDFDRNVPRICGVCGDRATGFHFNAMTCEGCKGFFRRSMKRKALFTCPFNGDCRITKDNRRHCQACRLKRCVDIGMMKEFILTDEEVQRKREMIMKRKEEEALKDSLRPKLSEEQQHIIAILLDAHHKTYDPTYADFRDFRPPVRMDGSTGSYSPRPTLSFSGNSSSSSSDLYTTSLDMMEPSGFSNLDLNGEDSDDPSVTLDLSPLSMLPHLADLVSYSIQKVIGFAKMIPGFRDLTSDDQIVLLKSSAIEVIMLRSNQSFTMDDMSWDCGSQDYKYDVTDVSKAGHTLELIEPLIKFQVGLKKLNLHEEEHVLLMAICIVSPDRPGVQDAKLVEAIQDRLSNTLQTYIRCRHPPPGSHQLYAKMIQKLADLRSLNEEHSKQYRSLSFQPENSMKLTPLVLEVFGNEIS
Test: Vitamin D receptor competitive binding with [3H]-1,25(OH)2D3
Conditions: full-length recombinant rat VDR; FIG. 1; read-out: Ki, competition with [3H]-1,25(OH)2D3 for binding to the vitamin D receptor
pKi: −log10 of the molar value.

| Compound | pKi |
| --- | --- |
| CCC(C)C1CCC2C(=CC=C3CC(O)C(C)C(O)C3)CCCC21C (stereo not drawn) [2α-methylbisP] | 8.80 |
